# test.system: human CD47 (hCD47) (human, UniProt Q08722 19-139, limits assumed)
# Sequence (Q08722 19-139 limits assumed): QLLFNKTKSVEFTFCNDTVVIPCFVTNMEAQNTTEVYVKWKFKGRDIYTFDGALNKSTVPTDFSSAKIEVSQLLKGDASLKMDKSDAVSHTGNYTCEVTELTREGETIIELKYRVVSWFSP
# assay.explanation: blocking ELISA, coated hCD47 ECD Fc, supernatant + biotin-SIRPα ECD His
Quick rule for you: Blocking (OD) under 0.3 OD gets TRUE, anything else gets FALSE.

Input 4RP13-3-7B (designed binder, tested as bacterial supernatant; also called S-28; hSIRPα-mt10 (IgV domain)) hSIRPα IgV domain mutant: EEELQVIQPDKSVSVAAGESAILTCTVTSLYPVGPIQWFRGAGPARELIYNQKRQTFPRVTTVSESTKRFNMDFSISISNITPADAGTYYCVKFRKGSPDTEFKSGAGTELSVRAKPS ; condition: Blocking (OD) strictly below 0.3 OD. Does it hold?
FALSE

Does the reported Blocking (OD) of 4RP13-1-2G (designed binder, tested as bacterial supernatant; also called S-5; hSIRPα-mt4 (IgV domain)) hSIRPα IgV domain mutant: EEELQVIQPDKSVSVAAGESAILRCTVTSLWPVGPIQWFRGAGPARELIYNQKAFIFPRVTTVSESTKRGNMDFSISISNITPADAGTYYCVKFRKGSPDTEFKSGAGTELSVRAKPS stay below 0.3 OD?
TRUE

is_below(Blocking (OD), 0.3 OD) for 4RP6-1-10A (designed binder, tested as bacterial supernatant; also called S-16; hSIRPα-mt13 (IgV domain)) hSIRPα IgV domain mutant: EEELQVIQPDKSVSVAAGESAILHCTVTSLLPVGPIQWFRGAGPARELIYNQKDFLFPRVTTVSESTKRENRDFSISISNITPADAGTYYCVKFRKGSPDTEFKSGAGTELSVRAKPS ?
FALSE

Is it true that Blocking (OD) reported for 2RP-1-3E (designed binder, tested as bacterial supernatant; also called S-7; hSIRPα-mt9 (IgV domain)) hSIRPα IgV domain mutant: EEELQVIQPDKSVSVAAGESAILTCTVTSLWPVGPIQWFRGAGPARELIYNQKGQNFPRVTTVSESTKRFNMDFSISISNITPADAGTYYCVKFRKGSPDTEFKSGAGTELSVRAKPS is less than 0.3 OD?
TRUE

Data origin, for the record: patent US20250288643A1
